test system: E. coli strain W3110; experiment: Synergy assays: Biolog chemical sensitivity panels with Group IB metal, coefficient of drug interaction (CDI) from relative growth; assay type: cell-based; details: Silver 0.5 μM; 2nd of four biocide concentrations; E. coli
measure-name: CDI (coefficient of drug interaction), silver + biocide
No unit in the answer, please; the number alone is enough.

Worked examples, 2 compounds total:
> print(dat)
                                   compound        assayed.system  result.number
1   CCCCCCCC[N+](C)(CCCCCCCC)CCCCCCCC.[Br-]  E. coli strain W3110           0.90
2  N.N.N.N.N.N.[Cl-].[Cl-].[Cl-].[Co+3] [hexammine cobalt (III) chloride]  E. coli strain W3110           1.05

Param request: CDI (coefficient of drug interaction), silver + biocide | system E. coli strain W3110 | item "O=C(O)CN(CCOCCOCCN(CC(=O)O)CC(=O)O)CC(=O)O" 0.86

Param request: CDI (coefficient of drug interaction), silver + biocide | system E. coli strain W3110 | item "CCCCCCCCCCCC[N+](C)(C)CCCS(=O)(=O)O" 0.56

Param request: CDI (coefficient of drug interaction), silver + biocide | system E. coli strain W3110 | item "CCCCCCCCCCCC[N+](C)(C)C.[Br-]" 0.91

* * *

tested on: E. coli strain W3110; assay: Synergy assays: Biolog chemical sensitivity panels with Group IB metal, coefficient of drug interaction (CDI) from relative growth; assay type: cell-based; details: Copper (mM) section, 3rd of 3 copper concentrations (value not shown); 4th of four biocide concentrations
measure-name: CDI (coefficient of drug interaction), copper mixed with biocide

Worked examples, 5 compounds total:
> print(dat)
                              compound        assayed.system  result
1       CC(C)c1nc2nc(N)nc(N)c2nc1C(C)C  E. coli strain W3110     Tox
2                          Nc1nc[nH]n1  E. coli strain W3110     Tox
3  CN(C)C(=O)/N=N/C(=O)N(C)C [diamide]  E. coli strain W3110    0.56
4               O=[N+]([O-])c1ncc[nH]1  E. coli strain W3110     Tox
5                   Oc1ccccc1-c1ccccc1  E. coli strain W3110     Tox

Consider the record given below.
Return value of CDI (coefficient of drug interaction), copper mixed with biocide for input "CCCCCCCCCCCCNC(=N)N" , no commentary. Tox

* * *

test system: E. coli strain W3110; assay: Synergy assays: Biolog chemical sensitivity panels with Group IB metal, coefficient of drug interaction (CDI) from relative growth; type: cell-based; settings: Gold (μM), second of 3 gold concentrations; biocide concentration 3 of 4
measure-name: CDI (coefficient of drug interaction), gold + biocide
No unit in the answer, please; the number alone is enough.

Worked examples, 2 molecules total:
> print(dat)
                                   molecule  result.number
1     O=[N+]([O-])c1ccc(O)c([N+](=O)[O-])c1           1.02
2  NC(CCC(=O)NO)C(=O)O [L-glutamic-γ-hydroxamate]           1.09

Param request: CDI (coefficient of drug interaction), gold + biocide | system E. coli strain W3110 | item "N.N.N.N.N.N.N.N.N.N.N.N.N.N.[Cl-].[Cl-].[Cl-].[Cl-].[Cl-].[Cl-].[O-2].[O-2].[Ru+3].[Ru+3].[Ru+4]" 1.14

Param request: CDI (coefficient of drug interaction), gold + biocide | system E. coli strain W3110 | item CSCCC(N)C(=O)NO (racemic) [D,L-methionine hydroxamate] 1.08

* * *

system: E. coli strain W3110; experiment: Synergy assays: Biolog chemical sensitivity panels with Group IB metal, coefficient of drug interaction (CDI) from relative growth; type: cell-based; settings: Copper (mM) section, 2nd of 3 copper concentrations (value not shown); 2nd of four biocide concentrations
measure-name: CDI (coefficient of drug interaction), copper mixed with biocide

Worked examples, 8 compounds total:
compound	result
CCCCCCCCCCCC[N+](C)(C)CCCS(=O)(=O)O [lauryl sulfobetaine]	1.39
CCCCCCCCCCCC[N+](C)(C)C.[Br-] [Dodecyltrimethyl NH4^+ Br^−]	1.04
CN[C@@H]1[C@@H](O)[C@@H](O[C@@H]2[C@@H](O)[C@H](O[C@H]3O[C@H]([C@@H](C)O)[C@@H](O)[C@H](O)[C@H]3N)[C@@H](N)C[C@H]2N)OC[C@]1(C)O [geneticin (G418)]	0.71
N.N.N.N.N.N.[Cl-].[Cl-].[Cl-].[Co+3] [hexammine cobalt (III) chloride]	1.05
CN[C@H]1C[C@@H](N)[C@H](O)[C@@H](O[C@@H]2O[C@H](CO)[C@H](O)[C@@H]3OC4(O[C@H]23)O[C@H]([C@@H](N)CO)[C@H](O)[C@H](O)[C@H]4O)[C@@H]1O (stereo partly shown) [hygromycin B]	0.81
O=C1C=C2C(=CCOC2O)O1 (stereo not shown) [patulin]	Tox
C[n+]1ccc(-c2cc[n+](C)cc2)cc1 [methyl viologen]	0.77
CCCCCCCC[N+](C)(CCCCCCCC)CCCCCCCC.[Br-] [Methyltrioctyl NH4+ Br−]	1.14

Return value of CDI (coefficient of drug interaction), copper mixed with biocide for input CN(C)C(=O)/N=N/C(=O)N(C)C [diamide] , no commentary. 0.72

Return value of CDI (coefficient of drug interaction), copper mixed with biocide for input Cc1cc(O)cc(C)c1Cl [chloroxylenol] , no commentary. Tox

* * *

tested on: E. coli strain W3110; assay: Synergy assays: Biolog chemical sensitivity panels with Group IB metal, coefficient of drug interaction (CDI) from relative growth; type: cell-based; conditions: Copper (mM) section, 1st of 3 copper concentrations (value not shown); 1st of four biocide concentrations
Property: CDI (coefficient of drug interaction), copper mixed with biocide; scope: individual compounds
No unit in the answer, please; the number alone is enough.

Worked examples, 3 compounds total:
> print(dat)
                                   compound        assayed.system  result.number
1  CCCCCCCCCCCC[N+](C)(C)CCCS(=O)(=O)O [lauryl sulfobetaine]  E. coli strain W3110           0.96
2  C[n+]1ccc(-c2cc[n+](C)cc2)cc1 [methyl viologen]  E. coli strain W3110           0.85
3  CCCCCCCC[N+](C)(CCCCCCCC)CCCCCCCC.[Br-] [Methyltrioctyl NH4+ Br−]  E. coli strain W3110           1.05

Consider the record given below.
Return value of CDI (coefficient of drug interaction), copper mixed with biocide for input CCCCCCCCCCCC[N+](C)(C)C.[Br-] [Dodecyltrimethyl NH4^+ Br^−] , no commentary. 1.20

* * *

system: E. coli strain W3110; experiment: Synergy assays: Biolog chemical sensitivity panels with Group IB metal, coefficient of drug interaction (CDI) from relative growth; format: cell-based; details: Gold section of Table 5; third of three gold concentrations (μM, value not given); biocide concentration 4 of 4
measure-name: CDI (coefficient of drug interaction)

> print(dat)
                                   molecule                           measure.name  result
1  CCCCC(CC)CNC(=N)NC(=N)NCCCCCCNC(=N)NC(=N)NCC(CC)CCCC (stereo not drawn) [alexidine]  CDI (coefficient of drug interaction)     Tox
2  O=C1C=C2C(=CCOC2O)O1 (stereo not drawn) [patulin]  CDI (coefficient of drug interaction)     Tox
3  CC(C)c1nc2nc(N)nc(N)c2nc1C(C)C [2,4-Diamino-6,7-diisopropylpteridine]  CDI (coefficient of drug interaction)     Tox

* * *

test system: E. coli strain W3110; assay: Synergy assays: Biolog chemical sensitivity panels with Group IB metal, coefficient of drug interaction (CDI) from relative growth; type: cell-based; conditions: Copper (mM) section, 2nd of 3 copper concentrations (value not shown); 1st of four biocide concentrations
Property: CDI (coefficient of drug interaction), copper mixed with biocide; scope: individual compounds
No unit in the answer, please; the number alone is enough.

compound	result-number
CN[C@@H]1[C@@H](O)[C@@H](O[C@@H]2[C@@H](O)[C@H](O[C@H]3O[C@H]([C@@H](C)O)[C@@H](O)[C@H](O)[C@H]3N)[C@@H](N)C[C@H]2N)OC[C@]1(C)O	0.73

Consider the record given below.
Return value of CDI (coefficient of drug interaction), copper mixed with biocide for input CN[C@H]1C[C@@H](N)[C@H](O)[C@@H](O[C@@H]2O[C@H](CO)[C@H](O)[C@@H]3OC4(O[C@H]23)O[C@H]([C@@H](N)CO)[C@H](O)[C@H](O)[C@H]4O)[C@@H]1O (stereo partly drawn) , no commentary. 0.80
